- MEASUREMENT_TARGET: κ opioid receptor (OPRK1) (Homo sapiens)
- Construct: gpcrSCAN; HitHunter cAMP XS+)
- Sequence (P41145 whole entry): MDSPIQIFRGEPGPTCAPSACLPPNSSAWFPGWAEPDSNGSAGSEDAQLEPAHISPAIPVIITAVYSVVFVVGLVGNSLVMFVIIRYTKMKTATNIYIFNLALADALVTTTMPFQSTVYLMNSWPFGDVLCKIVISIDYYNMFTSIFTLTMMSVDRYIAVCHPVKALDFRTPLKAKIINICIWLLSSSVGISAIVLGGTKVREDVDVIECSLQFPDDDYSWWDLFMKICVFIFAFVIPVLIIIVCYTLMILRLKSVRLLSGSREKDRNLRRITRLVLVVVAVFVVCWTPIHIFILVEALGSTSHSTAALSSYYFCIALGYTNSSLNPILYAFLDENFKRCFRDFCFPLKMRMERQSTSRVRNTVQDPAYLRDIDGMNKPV
- PROTOCOL: Eurofins DiscoverX opioid receptor assays (SAFETYscan; HitHunter cAMP), OPRK1
- CONDITION_NOTES: read-out: RC50 (EC50), cAMP
pEC50: −log10 of the molar value.
MEASURED_METRIC: pEC50

Looking for the measured pEC50 of O=C(NC1CCC2(CCCC2)CC1)c1ccc(-c2ccccc2)cc1 , can you help? < 4.00

---

- MEASUREMENT_TARGET: δ opioid receptor (OPRD1) (Homo sapiens)
- Construct: gpcrSCAN; HitHunter cAMP XS+)
- Sequence (P41143 whole entry): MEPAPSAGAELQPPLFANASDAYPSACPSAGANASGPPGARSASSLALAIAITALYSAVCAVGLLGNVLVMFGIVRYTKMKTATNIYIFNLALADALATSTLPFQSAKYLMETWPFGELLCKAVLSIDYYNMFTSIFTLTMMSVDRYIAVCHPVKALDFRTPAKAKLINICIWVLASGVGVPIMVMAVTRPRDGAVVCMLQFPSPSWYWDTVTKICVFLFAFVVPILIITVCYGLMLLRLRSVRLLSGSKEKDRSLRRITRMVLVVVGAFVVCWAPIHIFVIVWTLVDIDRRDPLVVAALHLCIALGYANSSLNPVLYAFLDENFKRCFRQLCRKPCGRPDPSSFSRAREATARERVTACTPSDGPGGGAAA
- PROTOCOL: Eurofins DiscoverX opioid receptor assays (SAFETYscan; HitHunter cAMP), OPRD1
- CONDITION_NOTES: read-out: RC50 (EC50), cAMP
pEC50: −log10 of the molar value.
MEASURED_METRIC: pEC50

Entry O=C(NC1CCC2(CCCC2)CC1)c1ccc(-c2ccccc2)cc1 [VBJ103] : reported pEC50 = ? < 4.00
